A collection of substances and their measured optical density (OD) at 405 nm, EIA reactivity of human serum sample 5
Test system: human IgG antibodies in human serum samples
protocol_text: EIA of human antibody reactivities to overlapping synthetic peptides of TTV ORF1 and ORF2 (Tables 2 and 3)
Format: binding
conditions: serum sample 5, negative for TTV DNA by PCR; serum 1:100; peptide coated 10 μg/ml; OD over 0.500 positive
The reply should be a number in OD, with the unit left off.

Example entries and their recorded answers appear below.
substance="VLICGENTVSRNYATHS (Peptide Immunogen) [compound 10, overlapping synthetic peptide of TTV ORF1]" reading=0.08
substance="KINTMPPFLDTELTAPS (Peptide Immunogen) [compound 18, overlapping synthetic peptide of TTV ORF1]" reading=0.00

Query: What measured optical density (OD) at 405 nm, EIA reactivity of human serum sample 5 goes with 2: overlapping synthetic peptide of TTV ORF1 (YAYPGTNRPPV) [compound 2] ?
Response: 0.08

Query: // query: 20: overlapping synthetic peptide of TTV ORF1 (TATTTTYAYPGTNRPP) [compound 20]
Response: 0.07

Query: Record: peptide 1: overlapping synthetic peptide of TTV ORF1 (TATTTTYAYPGTNRPPV)
Response: 0.10

====

Test system: human IgG antibodies in human serum samples
protocol_text: EIA of human antibody reactivities to overlapping synthetic peptides of TTV ORF1 and ORF2 (Tables 2 and 3)
Type: binding
conditions: human serum sample 155, positive for TTV DNA by PCR; serum diluted 1:100; OD over 0.500 considered positive
measured_attribute: optical density (OD) at 405 nm
Give the quantity in OD, number only.

Consider the worked cases shown below.
substance="peptide 1: overlapping synthetic peptide of TTV ORF1 (TATTTTYAYPGTNRPPV)" measured_attribute="optical density (OD) at 405 nm" reading=0.00
substance="20: overlapping synthetic peptide of TTV ORF1 (TATTTTYAYPGTNRPP) [compound 20]" measured_attribute="optical density (OD) at 405 nm" reading=0.09
substance="LIRSPFTDPQLLVHTDP (Peptide Immunogen) [compound 51, overlapping synthetic peptide of TTV ORF1]" measured_attribute="optical density (OD) at 405 nm" reading=0.24
substance="GLYSSIWLSPGRSYFET (Peptide Immunogen) [compound 42, overlapping synthetic peptide of TTV ORF1]" measured_attribute="optical density (OD) at 405 nm" reading=0.35
substance="2: overlapping synthetic peptide of TTV ORF1 (YAYPGTNRPPV) [compound 2]" measured_attribute="optical density (OD) at 405 nm" reading=0.07
substance="VLICGENTVSRNYATHS (Peptide Immunogen) [compound 10, overlapping synthetic peptide of TTV ORF1]" measured_attribute="optical density (OD) at 405 nm" reading=0.12
substance="YTDIKYNPFTDRGEGNM (Peptide Immunogen) [compound 44, overlapping synthetic peptide of TTV ORF1]" measured_attribute="optical density (OD) at 405 nm" reading=0.17
substance="DQNIHMNARLLIRSPFT (Peptide Immunogen) [compound 50, overlapping synthetic peptide of TTV ORF1]" measured_attribute="optical density (OD) at 405 nm" reading=0.63
substance="22: overlapping synthetic peptide of TTV ORF1 (TATTTTYAYPGTNR) [compound 22]" measured_attribute="optical density (OD) at 405 nm" reading=0.11
substance="PDEKSQREILLNKIASY (Peptide Immunogen) [compound 29, overlapping synthetic peptide of TTV ORF1]" measured_attribute="optical density (OD) at 405 nm" reading=0.59

Query: Any idea what optical density (OD) at 405 nm was measured for 21: overlapping synthetic peptide of TTV ORF1 (TATTTTYAYPGTNRP) [compound 21] ?
Response: 0.00

Query: Also KINTMPPFLDTELTAPS (Peptide Immunogen) [compound 18, overlapping synthetic peptide of TTV ORF1] , if possible.
Response: 0.19

Query: Try this substance too: TATTTTYAYPGTNRPPV (Peptide Immunogen) [peptide 35, overlapping synthetic peptide of TTV ORF1]
Response: 0.95

Query: Now the same for QKESLLFPPVKLLRRVP (Peptide Immunogen) [compound 69, overlapping synthetic peptide of TTV ORF1]
Response: 0.15

====

Test system: human IgG antibodies in human serum samples
protocol_text: EIA of human antibody reactivities to overlapping synthetic peptides of TTV ORF1 and ORF2 (Tables 2 and 3)
Format: binding
conditions: human serum sample 11, negative for TTV DNA by PCR; serum diluted 1:100; OD over 0.500 considered positive
measured_attribute: optical density (OD) at 405 nm
Report as a plain number; the unit OD is understood.

Some substances with recorded optical density (OD) at 405 nm:
substance="peptide 1: overlapping synthetic peptide of TTV ORF1 (TATTTTYAYPGTNRPPV)" reading=0.00
substance="TATTTTYAYPGTNRPPV (Peptide Immunogen) [peptide 35, overlapping synthetic peptide of TTV ORF1]" reading=0.64
substance="21: overlapping synthetic peptide of TTV ORF1 (TATTTTYAYPGTNRP) [compound 21]" reading=0.00
substance="KINTMPPFLDTELTAPS (Peptide Immunogen) [compound 18, overlapping synthetic peptide of TTV ORF1]" reading=0.28
substance="LIRSPFTDPQLLVHTDP (Peptide Immunogen) [compound 51, overlapping synthetic peptide of TTV ORF1]" reading=0.13
substance="VLICGENTVSRNYATHS (Peptide Immunogen) [compound 10, overlapping synthetic peptide of TTV ORF1]" reading=0.12

Moving on to the next substance.
Query: Look at this substance and give its reported optical density (OD) at 405 nm. DQNIHMNARLLIRSPFT (Peptide Immunogen) [compound 50, overlapping synthetic peptide of TTV ORF1]
Response: 0.18

====

Tested on: human IgG antibodies in human serum samples
protocol_text: EIA of human antibody reactivities to overlapping synthetic peptides of TTV ORF1 and ORF2 (Tables 2 and 3)
Type: binding
conditions: serum sample 36, positive for TTV DNA by PCR; serum 1:100; peptide coated 10 μg/ml; OD over 0.500 positive
Consider the following substances and their measured optical density (OD) at 405 nm, EIA reactivity of human serum sample 36 readings.

Query: Need optical density (OD) at 405 nm, EIA reactivity of human serum sample 36, item peptide 1: overlapping synthetic peptide of TTV ORF1 (TATTTTYAYPGTNRPPV)
Response: 0.09 OD

Query: Also 2: overlapping synthetic peptide of TTV ORF1 (YAYPGTNRPPV) [compound 2] , if possible.
Response: 0.08 OD

Query: Entry to check: VLICGENTVSRNYATHS (Peptide Immunogen) [compound 10, overlapping synthetic peptide of TTV ORF1]
Response: 0.07 OD

Query: Item: KINTMPPFLDTELTAPS (Peptide Immunogen) [compound 18, overlapping synthetic peptide of TTV ORF1]
Response: 0.00 OD

Query: Input 20: overlapping synthetic peptide of TTV ORF1 (TATTTTYAYPGTNRPP) [compound 20]
Response: 0.08 OD

====

System: human IgG antibodies in human serum samples
protocol_text: EIA of human antibody reactivities to overlapping synthetic peptides of TTV ORF1 and ORF2 (Tables 2 and 3)
Type: binding
conditions: serum sample 1, negative for TTV DNA by PCR; serum 1:100; peptide coated 10 μg/ml; OD over 0.500 positive
A collection of substances and their measured optical density (OD) at 405 nm, EIA reactivity of human serum sample 1
Numeric only. Scale: OD

substance="20: overlapping synthetic peptide of TTV ORF1 (TATTTTYAYPGTNRPP) [compound 20]" reading=0.09

Query: I'm curious: which optical density (OD) at 405 nm, EIA reactivity of human serum sample 1 was measured for KINTMPPFLDTELTAPS (Peptide Immunogen) [compound 18, overlapping synthetic peptide of TTV ORF1] tested on human IgG antibodies in human serum samples?
Response: 0.00

Query: Try this substance next: VLICGENTVSRNYATHS (Peptide Immunogen) [compound 10, overlapping synthetic peptide of TTV ORF1]
Response: 0.09

Query: How about this substance: peptide 1: overlapping synthetic peptide of TTV ORF1 (TATTTTYAYPGTNRPPV)
Response: 0.09

Query: Check 2: overlapping synthetic peptide of TTV ORF1 (YAYPGTNRPPV) [compound 2] too.
Response: 0.10

====

Tested on: human IgG antibodies in human serum samples
protocol_text: EIA of human antibody reactivities to overlapping synthetic peptides of TTV ORF1 and ORF2 (Tables 2 and 3)
Assay type: binding
conditions: human serum sample 157, positive for TTV DNA by PCR; serum diluted 1:100; OD over 0.500 considered positive
measured_attribute: optical density (OD) at 405 nm
Give the figure together with its unit, number first.

In the examples that follow, each entry is paired with its recorded optical density (OD) at 405 nm.
substance="peptide 1: overlapping synthetic peptide of TTV ORF1 (TATTTTYAYPGTNRPPV)" reading="0.00 OD"
substance="VLICGENTVSRNYATHS (Peptide Immunogen) [compound 10, overlapping synthetic peptide of TTV ORF1]" reading="0.12 OD"

# evaluate next
Query: Fill in the blank: the reported optical density (OD) at 405 nm of 20: overlapping synthetic peptide of TTV ORF1 (TATTTTYAYPGTNRPP) [compound 20] is ____.
Response: 0.10 OD

Just for reference, patent US20030022158A1 is where these values come from.
